# STUDY_TARGET: human FLT-3 (Arg571-Ser993) (Homo sapiens)
# Construct: human FLT-3 (Arg571-Ser993); GST (N); purchased Cell Signaling Technology; host or cells: baculovirus expression system
# Sequence (P36888 571-993): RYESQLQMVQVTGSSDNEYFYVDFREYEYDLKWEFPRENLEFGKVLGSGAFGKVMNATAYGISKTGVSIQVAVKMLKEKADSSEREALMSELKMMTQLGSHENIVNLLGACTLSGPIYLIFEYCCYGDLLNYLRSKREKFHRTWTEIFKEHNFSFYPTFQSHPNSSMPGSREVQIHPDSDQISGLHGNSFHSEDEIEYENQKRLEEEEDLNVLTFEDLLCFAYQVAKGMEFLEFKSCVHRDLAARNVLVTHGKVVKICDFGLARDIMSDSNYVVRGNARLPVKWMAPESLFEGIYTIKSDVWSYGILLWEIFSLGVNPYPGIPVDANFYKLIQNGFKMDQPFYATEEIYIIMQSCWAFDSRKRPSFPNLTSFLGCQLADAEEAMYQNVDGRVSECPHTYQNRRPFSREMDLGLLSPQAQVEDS
# PROCEDURE_SUMMARY: FLT-3 kinase assay (HTScan kit, DELFIA)
# Format: biochemical
# CONDITIONS_USED: compound at 0.1 μM; read-out: FLT-3 0.1 μM, % of inhibition relative to control
METRIC: inhibition at 0.1 µM (%)
Give bare numbers, in %.

Solved entries:
Given COc1ccc2c(c1)/C(=C/c1ccc3cccccc1-3)C(=O)N2 [Compound 44] , state its recorded inhibition at 0.1 µM. 5.7

Subsequent entry: O=C1Nc2ccc(F)cc2/C1=C/c1cc(F)c2cccccc1-2 [Compound 60] 52.6

Please do the same for Cc1cc(C=C2C(=O)Nc3ccc(F)cc32)c2ccccc(OCCCN3CCN(C)CC3)c1-2 [Compound 96] as well. 68.9

Consider now this further compound.
Can you share its inhibition at 0.1 µM? I mean this compound: O=C1Nc2ccc(F)cc2/C1=C/c1cc(Br)c2cccccc1-2 [Compound 45] 51.4
